Molecular target: UniProtKB P81908
Sequence (P81908 whole entry): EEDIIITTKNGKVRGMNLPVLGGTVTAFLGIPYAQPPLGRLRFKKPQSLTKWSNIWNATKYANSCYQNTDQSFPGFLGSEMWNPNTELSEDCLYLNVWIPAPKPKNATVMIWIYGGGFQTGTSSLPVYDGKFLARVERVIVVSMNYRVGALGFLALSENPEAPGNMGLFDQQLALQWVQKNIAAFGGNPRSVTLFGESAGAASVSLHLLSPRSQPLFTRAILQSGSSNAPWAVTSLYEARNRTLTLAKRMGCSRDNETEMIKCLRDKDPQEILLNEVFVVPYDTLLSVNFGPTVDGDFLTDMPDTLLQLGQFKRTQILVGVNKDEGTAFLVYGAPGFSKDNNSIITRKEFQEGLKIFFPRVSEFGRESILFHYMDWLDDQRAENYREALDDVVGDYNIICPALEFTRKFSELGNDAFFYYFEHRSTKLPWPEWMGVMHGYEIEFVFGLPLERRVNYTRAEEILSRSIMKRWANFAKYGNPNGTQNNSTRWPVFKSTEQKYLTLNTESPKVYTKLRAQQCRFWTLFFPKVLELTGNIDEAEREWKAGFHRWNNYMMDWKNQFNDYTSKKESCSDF
Assay: Time dependent inhibition of equine serum BChE assessed as stability constants of inhibitor-enzyme complex using acetylthiocholine as substrate after 60 mins
What pKi was measured for each of the following?
Scale explanation: pKi corresponds to minus log10 of a concentration expressed in moles per litre.

Lookup: Given the molecule CCN(C)C(=O)Oc1ccc2c(c1)CN1CCc3ccccc3C1N2C (configuration not stated) , write its reported pKi.
Found: 6.56

Lookup: Given the molecule CCCCCCCNC(=O)Oc1ccc2c(c1)CN1CCc3ccccc3C1N2C (configuration not stated) , write its reported pKi.
Found: 7.90

----------
Assay: Selectivity ratio of IC50 for Electric eel AChE to IC50 for equine serum BChE
What Ratio IC50 was measured for each of the following?
# answer = number (no unit)

Lookup: Given the molecule CCCCCCCNC(=O)Oc1ccc2c(c1)CN1CCCC1N2C (stereo not drawn) , write its reported Ratio IC50.
Found: 16.6

Lookup: Given the molecule CN1c2ccccc2CN2CCc3ccccc3C21 (stereo not drawn) , write its reported Ratio IC50.
Found: 3.3

Lookup: Given the molecule CN1c2ccc(O)cc2CN2CCCC21 (stereo not drawn) , write its reported Ratio IC50.
Found: 0.75

Lookup: Given the molecule CN1c2ccccc2CN2CCCC21 (stereo not drawn) , write its reported Ratio IC50.
Found: 3.4

Lookup: Given the molecule CCN(C)C(=O)Oc1ccc2c(c1)CN1CCc3ccccc3C1N2C (stereo not drawn) , write its reported Ratio IC50.
Found: 54.2

Lookup: Given the molecule CN1c2ccc(O)cc2CN2CCCc3ccccc3C21 (stereo not drawn) , write its reported Ratio IC50.
Found: 5.2

Lookup: Given the molecule CN1c2ccc(O)cc2CN2CCc3ccccc3C21 (stereo not drawn) , write its reported Ratio IC50.
Found: 2.5

Lookup: Given the molecule Cc1ccccc1NC(=O)Oc1ccc2c(c1)CN1CCCC1N2C (stereo not drawn) , write its reported Ratio IC50.
Found: 16.1

Lookup: Given the molecule COc1ccc2c(c1)CN1CCc3ccccc3C1N2C (stereo not drawn) , write its reported Ratio IC50.
Found: 4.2

Lookup: Given the molecule COc1cccc(NC(=O)Oc2ccc3c(c2)CN2CCCC2N3C)c1 (stereo not drawn) , write its reported Ratio IC50.
Found: 5.3
